meta.source: patent US20230416410A1

- tested_target: recombinant bovine FcRn (bovine) (UniProt F6R592)
- Sequence (chain, as listed by the source, chain 1 of 2): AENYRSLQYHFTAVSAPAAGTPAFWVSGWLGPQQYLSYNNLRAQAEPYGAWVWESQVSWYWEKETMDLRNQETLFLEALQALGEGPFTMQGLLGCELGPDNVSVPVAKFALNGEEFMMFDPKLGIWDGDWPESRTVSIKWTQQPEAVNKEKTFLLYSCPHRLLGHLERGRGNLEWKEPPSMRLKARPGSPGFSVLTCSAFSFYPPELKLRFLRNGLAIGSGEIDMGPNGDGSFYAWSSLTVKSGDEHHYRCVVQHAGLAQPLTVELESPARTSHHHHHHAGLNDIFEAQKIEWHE
- Sequence (P01888 21-118, chain 2 of 2): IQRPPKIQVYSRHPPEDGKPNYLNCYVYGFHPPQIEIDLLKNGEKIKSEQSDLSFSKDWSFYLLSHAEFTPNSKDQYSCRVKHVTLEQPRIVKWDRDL
- method_notes: SPR Biacore, bFcRn on SA sensor, pH 6, 25 C
Entries and their Kd

binder	Kd (nM)
bIgG2a_N434A mAb (antibody, part only; not given: variable domains, not shown: another chain or arm of the molecule) constant: ASTTAPKVYPLTSCCGDKSSSRVTLGCLVSSYMPEPVTVTWNSGALKSGVHTFPAVLQSSGLYSLSSMVTVPGSSSGQTFTCNVAHPASSTKVDKAVGVSSDCSKPNNQHCVREPSVFIFPPKPKDTLMITGTPEVTCVVVNVGHDNPEVQFSWFVDDVEVHTARTKPREEQFNSTYRVVSALPIQHQDWTGGKEFKCKVNIKGLSASIVRIISRSKGPAREPQVYVLDPPKEELSKSTVSVTCMVIGFYPEDVDVEWQRDRQTESEDKYRTTPPQLDADRSYFLYSKLRVDRNSWQRGDTYTCVVMHEALHAHYMQKSTSKSAGK	1.04
bIgG2a_L432A mAb (antibody, part only; not given: variable domains, not shown: another chain or arm of the molecule) constant: ASTTAPKVYPLTSCCGDKSSSRVTLGCLVSSYMPEPVTVTWNSGALKSGVHTFPAVLQSSGLYSLSSMVTVPGSSSGQTFTCNVAHPASSTKVDKAVGVSSDCSKPNNQHCVREPSVFIFPPKPKDTLMITGTPEVTCVVVNVGHDNPEVQFSWFVDDVEVHTARTKPREEQFNSTYRVVSALPIQHQDWTGGKEFKCKVNIKGLSASIVRIISRSKGPAREPQVYVLDPPKEELSKSTVSVTCMVIGFYPEDVDVEWQRDRQTESEDKYRTTPPQLDADRSYFLYSKLRVDRNSWQRGDTYTCVVMHEAAHNHYMQKSTSKSAGK	0.579
